- Procedure Text: PET hydrolysis, aromatic products released after 48 h (umol product/mg enzyme); higher = more PET depolymerization activity
- Assay Context: substrate: cryPow; 40 °C; pH 4.5
PET hydrolysis overview

{"Seq Text": "AETTTQHGPDPTEGSITAPTGPFQTDQKTVPRSSVQGFGGGTIYYPTETSQGTFGAVTIAPGYTAGKESLAWLGPRLASQGFVVFTIDTITTSDQPDSRAKQLMASLDYLTGDSDVRDRIDTSRLAVMGHSMGGGGTLEAARDNRNLKAAIPMTPWDTTKDFSGVQTPTLIIGAQNDTIAPVAQHAKPFYGSLPDDPGKAYLELAGASHFAPNQDNTTIAKSSIAWLKRFVDDDTRYDQFLCPPPQDAEISDYQSTCPY [TEP037]", "PET hydrolysis": "< 3"}
{"Seq Text": "QYQKGPDPTVSALERTGSFATRTTTVSRTSASGFGGGTIYYPTASGSYGAIAISPGFTAYQSSISWMGTRLASHGFVVITIDTITTSDQPDSRGRQLKAALDKVVSLSRSSSSPIYNKVDTTRLAVAGHSMGGGGTLAAARDYPSLKAAVPLAPWHTTKSWSRVTVPTLIIGGSTDTIASVGLHSIPFYTSLPSSTNKAYMELSGEGHFFPQTSSNYPLVGRYMISWFKRFVDGDSRYSPFLCGAQHQADLGLFSDISDYRENCPY [ESM169]", "PET hydrolysis": "< 3"}

What value of PET hydrolysis has been reported for the following sequence? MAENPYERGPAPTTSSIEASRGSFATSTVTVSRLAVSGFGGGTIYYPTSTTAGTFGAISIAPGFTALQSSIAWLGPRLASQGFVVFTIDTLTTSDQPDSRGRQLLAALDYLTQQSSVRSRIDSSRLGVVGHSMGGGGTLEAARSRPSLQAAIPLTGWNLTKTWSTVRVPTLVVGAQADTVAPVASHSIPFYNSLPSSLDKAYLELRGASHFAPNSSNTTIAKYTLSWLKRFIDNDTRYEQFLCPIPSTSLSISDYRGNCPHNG [TEP182] < 3

----------
- Procedure Text: purified protein yield per well (BCA); higher = higher soluble expression
Quantity Measured: purified protein yield per well (µg)
Give just the number in µg; leave the unit off.

Sample records with purified protein yield per well:
{"Seq Text": "GESPGAAVVAFAGHAKGPAPTEQSVRAQQGPFTTDKLVVPAQAGRGFNKGTIYYPDDTSQGTFGAVAVIPGFLEGESAISWLGPTLASHGFITLTLAPNATTDYPEPRSNQLLAAVDWLANQSPVKDRVDPNRLAVAGHSMGGGGTLIAASKNPALKAAVPLTPWNPHSNFSDVTVPTLIIGADRDFIAPTFMHASPMYNSLKAKQDQAYLKLKNADHFATNRYNATATAYTVSWLKRYVDEDTRYSQFLCPVKSGFQLTCPI [DP011]", "Measure Unit": "µg", "purified protein yield per well": 26}
{"Seq Text": "ANPYERGPDPTLASVEATSGTFAYASLSVSSGNGFGGGTIYYPTSTTDGTFAGIVTCPGFTNSGSSMAWFGKVLASQGFVTLVMNPKSNLDFPDARATQMLAALDWLTNSSSVKTRIDATRLGVLGQSMGGGATLKASKTRPSLKASFATAPYNSDKDWSTNTVPQFLFGMQNDTTAAVTNHALKFYNSLPATTPKIYAELRGAGHSTATSPNTSIRRYAVSFMKRNLDNDTRYSQFLCPGPTITSSSPLSAFMSNCLF [DP080]", "Measure Unit": "µg", "purified protein yield per well": 291}

Look up purified protein yield per well for this sequence: ADNPYERGPNPTESLIEAARGPFATSQTTVSSLSVTGFGGGVIYYPTDTSQGTFGGIAISPGYTAAWSSLDWLGPRLASHGFVVIGIETNTRLDQPASRGDQLLAALDYLTQRSSVRSRVDATRLAVAGHSMGGGGSLEAAKDRTSLKAAIPLAPWNTDKTWPEVRTPTLIIGGESDTVAPVSSHSIPFYTSLTSAREKAYLELDNASHFFPQTSNTTMAKYMISWMKRYIDNDTRYEQFLCPGPSTGLLSGISDWRQTCPGS [TEP073] 81.6
